Source of measurements: patent US20100305157A1

target: peripheral site of AChE from bovine erythrocytes (Bos taurus, UniProt P23795); construct: A solution of AChE from bovine erythrocytes; from tissue; host or cells: bovine erythrocytes; test: biochemical; assay type: binding; conditions: compound 3 micromolar (concentration of maximum reduction); propidium 20 micromolar; AChE 5 micromolar; read-out: Protection (%) (percentage of the reduction in propidium fluorescence)
Sequence (P23795 31-614 isoform P23795-2 limits assumed): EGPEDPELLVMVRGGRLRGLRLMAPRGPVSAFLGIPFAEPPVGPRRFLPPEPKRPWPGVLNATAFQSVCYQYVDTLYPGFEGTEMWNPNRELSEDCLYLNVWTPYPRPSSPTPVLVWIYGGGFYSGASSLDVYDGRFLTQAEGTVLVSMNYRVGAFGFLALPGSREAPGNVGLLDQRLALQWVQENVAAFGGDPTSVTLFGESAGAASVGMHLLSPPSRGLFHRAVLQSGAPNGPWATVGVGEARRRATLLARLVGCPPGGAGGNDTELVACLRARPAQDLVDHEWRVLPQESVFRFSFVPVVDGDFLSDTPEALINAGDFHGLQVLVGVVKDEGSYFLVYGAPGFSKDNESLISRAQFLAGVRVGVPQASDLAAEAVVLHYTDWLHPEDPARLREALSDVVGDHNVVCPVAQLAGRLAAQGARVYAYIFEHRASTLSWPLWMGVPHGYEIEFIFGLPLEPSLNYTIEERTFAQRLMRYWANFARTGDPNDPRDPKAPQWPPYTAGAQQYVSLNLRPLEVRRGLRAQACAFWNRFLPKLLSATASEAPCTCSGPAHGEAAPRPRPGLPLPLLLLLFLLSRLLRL
Catalogue of inhibition at 3 µM readings, one per entry.
Measurement kind: inhibition at 3 µM (%)

• CCCCCCOC(=O)C(CCC(=O)NCCC1CCN(Cc2ccccc2)CC1)NC(=O)c1ccccc1 (stereo not shown) [Example 1.3] = 37.3
• CCCCCCOC(=O)C(CCC(=O)NCCC1CCN(Cc2ccccc2)CC1)NC(=O)c1cc2ccccc2s1 (stereo not shown) [Example 1.4] = 39.7
• CCCCCCOC(=O)C(CCC(=O)NCCC1CCN(Cc2ccccc2)CC1)NC(=O)c1cccs1 (stereo not shown) [Example 1.8] = 15
• CCCCCCOC(=O)C(CCC(=O)NCCC1CCN(Cc2ccccc2)CC1)NC(=O)Cc1cc2ccc(Cl)cc2s1 (stereo not shown) [Example 1.5] = 23.4

---

test: in vitro; conditions: pig, PAMPA, pH 7.4
Catalogue of Papp at 120 min readings, one per entry.
Measurement kind: Papp at 120 min

* CCCCCCOC(=O)C(CCC(=O)NCCC1CCN(Cc2ccccc2)CC1)NC(=O)c1cc2cccnc2s1 (stereo not drawn) | 3.2 ×10⁻⁶ cm/s
* CCCCCCOC(=O)C(CCC(=O)NCCC1CCN(Cc2ccccc2)CC1)NC(=O)c1cccs1 (stereo not drawn) | 5.3 ×10⁻⁶ cm/s
* CCCCCCOC(=O)C(CCC(=O)NCCC1CCN(Cc2ccccc2)CC1)NC(=O)OC(C)(C)C (stereo not drawn) | 4.4 ×10⁻⁶ cm/s

---

molecular target: purified AChE from Electrophorus electricus (Electrophorus electricus); construct: using purified AChE from Electrophorus electricus; from tissue; experiment: Inhibition of acetylcholinesterase (method of Rappaport); type: biochemical; settings: read-out: AChE-I, IC50
Measurement kind: IC50 (nM)

• CCCCCCOC(=O)C(CCC(=O)NCCC1CCN(Cc2ccccc2)CC1)NC(=O)c1cc2ccccc2s1 (stereo not shown) = 2500

---

Catalogue of pIC50 readings, one per entry.
biological target: purified AChE from Electrophorus electricus (Electrophorus electricus); construct: using purified AChE from Electrophorus electricus; from tissue; test: Inhibition of acetylcholinesterase (method of Rappaport); type: biochemical
pIC50: −log10 of the molar value.
Measurement kind: pIC50

• CCCCCCOC(=O)C(CCC(=O)NCCC1CCN(Cc2ccccc2)CC1)NC(=O)OC(C)(C)C (centres unmarked) = 5.30
• CCCCCCOC(=O)C(CCC(=O)NCCC1CCN(Cc2ccccc2)CC1)NC(=O)OCc1ccccc1 (centres unmarked) = 5.85

---

Target: purified AChE from Electrophorus electricus (Electrophorus electricus, UniProt O42275)
Construct: using purified AChE from Electrophorus electricus; from tissue
Sequence (O42275 24-633): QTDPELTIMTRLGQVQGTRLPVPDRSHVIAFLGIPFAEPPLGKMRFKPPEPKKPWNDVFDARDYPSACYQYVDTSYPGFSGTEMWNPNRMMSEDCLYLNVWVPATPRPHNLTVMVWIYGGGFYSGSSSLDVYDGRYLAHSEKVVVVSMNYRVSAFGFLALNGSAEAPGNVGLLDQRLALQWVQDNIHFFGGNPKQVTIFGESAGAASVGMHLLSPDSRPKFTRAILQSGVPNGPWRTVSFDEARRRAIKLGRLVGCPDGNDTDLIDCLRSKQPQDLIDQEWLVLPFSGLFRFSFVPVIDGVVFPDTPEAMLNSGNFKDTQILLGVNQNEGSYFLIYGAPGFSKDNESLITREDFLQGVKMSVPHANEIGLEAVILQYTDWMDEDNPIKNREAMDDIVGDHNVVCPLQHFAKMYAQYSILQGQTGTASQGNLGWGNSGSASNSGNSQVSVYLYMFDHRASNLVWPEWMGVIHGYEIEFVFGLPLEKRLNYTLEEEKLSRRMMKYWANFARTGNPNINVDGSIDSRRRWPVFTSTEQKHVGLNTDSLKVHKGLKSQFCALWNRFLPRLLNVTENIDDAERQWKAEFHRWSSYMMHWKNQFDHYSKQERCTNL
Assay: Inhibition of acetylcholinesterase (method of Rappaport)
Type: biochemical
Settings: 30 minutes incubation; acetylcholine chloride 29.5 milimolar as substrate; read-out: AChE-I, IC50
Description: For this reason, it was considered interesting to evaluate the capacity to inhibit AChE of the compounds of the present invention. This evaluation was performed following the method of Rappaport (Clin. Chim. Acta 1959, 4, 227), using purified AChE from Electrophorus electricus and acetylcholine chloride (29.5 milimolar) as substrate. […]
pIC50: −log10 of the molar value.
Measurement kind: pIC50

- CCCCCCOC(=O)C(CCC(=O)NCCC1CCN(Cc2ccccc2)CC1)NC(=O)Cc1cc2ccc(Cl)cc2s1 (stereo not drawn): 5.64
- CCCCCCOC(=O)C(CCC(=O)NCCC1CCN(Cc2ccccc2)CC1)NC(=O)c1cc2ccsc2s1 (stereo not drawn): 5.46
- CCCCCCOC(=O)C(CCC(=O)NCCC1CCN(Cc2ccccc2)CC1)NC(=O)c1cccs1 (stereo not drawn): 5.46
- CCCCCCOC(=O)C(CCC(=O)NCCC1CCN(Cc2ccccc2)CC1)NC(=O)c1cc2cccnc2s1 (stereo not drawn): 5.49
- CCCCCCOC(=O)C(CCC(=O)NCCC1CCN(Cc2ccccc2)CC1)NC(=O)c1ccccc1 (stereo not drawn): 5.72
- CCCCCCOC(=O)C(CCC(=O)NCCC1CCN(Cc2ccccc2)CC1)NC(=O)c1cc(Br)cs1 (stereo not drawn): 5.92
